Experiment: Degree of specificity expressed as the ratio of I50 of AChE to I50 of ChAT
Ratio by entry:
Number, no unit, nothing else.

Ratio for `CCCC[n+]1ccc(/C=C/c2cccc3ccccc23)cc1` ?
11

Ratio for `NC(=O)C[n+]1ccc(/C=C/c2cccc3ccccc23)cc1` ?
296

Ratio for `Cc1c[n+](CC(N)=O)ccc1/C=C/c1cccc2ccccc12` ?
132

Ratio for `CCOC(=O)C(C(=O)OCC)[n+]1ccc(/C=C/c2cccc3ccccc23)cc1` ?
24

----------
Ratio by entry:
Assay: Degree of specificity expressed as the ratio of I50 of AChE to I50 of ChAT
Number, no unit, nothing else.

Use the examples below as a reference point.
[[record]]
molecule = "NCC[n+]1ccc(/C=C/c2cccc3ccccc23)cc1"
meas_value = 16

[[record]]
molecule = "Cc1c[n+](CCC(=O)O)ccc1/C=C/c1cccc2ccccc12"
meas_value = 17

[[record]]
molecule = "C[n+]1ccc(/C=C/c2cccc3ccccc23)cc1"
meas_value = 77


Ratio for `NCCC[n+]1ccc(/C=C/c2cccc3ccccc23)cc1` ?
42
